- Measurement target: Lethal factor (Bacillus anthracis)
- Sequence (P15917 whole entry): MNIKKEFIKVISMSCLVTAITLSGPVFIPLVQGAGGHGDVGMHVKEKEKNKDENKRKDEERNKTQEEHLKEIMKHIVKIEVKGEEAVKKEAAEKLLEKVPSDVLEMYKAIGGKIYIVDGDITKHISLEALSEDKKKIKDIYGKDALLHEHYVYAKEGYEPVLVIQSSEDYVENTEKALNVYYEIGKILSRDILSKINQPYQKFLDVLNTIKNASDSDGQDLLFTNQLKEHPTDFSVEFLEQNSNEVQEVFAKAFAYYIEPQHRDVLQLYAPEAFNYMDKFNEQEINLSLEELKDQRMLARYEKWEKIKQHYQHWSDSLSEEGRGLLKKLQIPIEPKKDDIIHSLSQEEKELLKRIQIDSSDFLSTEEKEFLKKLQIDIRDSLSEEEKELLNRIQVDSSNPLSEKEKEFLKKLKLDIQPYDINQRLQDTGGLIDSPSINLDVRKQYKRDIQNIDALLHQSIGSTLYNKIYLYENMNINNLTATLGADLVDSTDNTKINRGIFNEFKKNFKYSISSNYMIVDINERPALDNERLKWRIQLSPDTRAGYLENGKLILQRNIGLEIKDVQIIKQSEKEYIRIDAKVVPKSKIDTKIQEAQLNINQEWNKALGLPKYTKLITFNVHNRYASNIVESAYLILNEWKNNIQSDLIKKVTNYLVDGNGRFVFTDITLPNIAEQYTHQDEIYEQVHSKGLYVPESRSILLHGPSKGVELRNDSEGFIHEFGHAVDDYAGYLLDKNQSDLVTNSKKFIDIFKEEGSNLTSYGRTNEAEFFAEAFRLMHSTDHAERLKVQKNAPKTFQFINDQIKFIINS
Assign pIC50 to each entry below.
One number for each entry, as −log10 of the molar value.

These recorded examples may help you get a feel for the data.
query_smiles=Cc1ccc(S(=O)(=O)Nc2sccc2-c2nc3ccccc3s2)cc1[N+](=O)[O-] recorded_result=5.00
query_smiles=Cc1csc(NS(=O)(=O)c2ccc3ccccc3c2)c1-c1nc2ccccc2s1 recorded_result=4.92
query_smiles=O=S(=O)(Nc1sccc1-c1nc2ccccc2s1)c1ccc(Oc2ccccc2)nc1 recorded_result=4.37
query_smiles=Cc1ccc(S(=O)(=O)Nc2sccc2-c2nc3ccccc3s2)cc1 recorded_result=4.89
query_smiles=O=S(=O)(Nc1sccc1-c1nc2ccccc2s1)c1ccc(F)cc1 recorded_result=4.80
query_smiles=O=S(=O)(Nc1sccc1-c1nc2ccccc2s1)c1ccc(-c2cnco2)cc1 recorded_result=4.89
query_smiles=Cc1csc(NS(=O)(=O)c2cc(Cl)c(Cl)cc2Cl)c1-c1nc2ccccc2s1 recorded_result=4.82
query_smiles=O=S(=O)(Nc1sccc1-c1nc2ccccc2s1)c1cccc(Cl)c1F recorded_result=4.52

We next turn to a different compound, shown below.
Problem: State the recorded pIC50 for this entry: Cc1csc(NS(=O)(=O)c2cccc(Cl)c2F)c1-c1nc2ccccc2s1
Result: 4.00

Source listed as ChEMBL document CHEMBL1151859.
